# Test system: stable HCV 1a RLuc replicon cells (genotype 1a H77 replicon)
# testDetails: microbe, parasite or virus in culture
# Format: cell-based
# measurementParameters: Hepatitis C virus, read-out: 1a (nM)
outcomeMeasure: EC50
Note: state the figure and append the unit.

Reference set (3 entries):
CCC(C)[C@H](NC(=O)OC)C(=O)N1C[C@@H](C)CC1c1ncc(-c2ccc3c(c2)COc2cc4c(ccc5nc([C@@H]6CC(COC)CN6C(=O)[C@@H](NC(=O)OC)C(C)OC)[nH]c54)cc2-3)[nH]1 (stereo in doubt) = 0.025 nM
COC(=O)N[C@H](C(=O)N1[C@@H](C)CC[C@H]1c1ncc(-c2ccc3c(c2)COc2cc4c(ccc5nc([C@@H]6CC[C@H](C)N6C(=O)[C@@H](NC(=O)OC)[C@@H](C)OC)[nH]c54)cc2-3)[nH]1)[C@@H](C)OC = 0.015 nM
COC[C@H]1C[C@@H](c2nc3ccc4cc5c(cc4c3[nH]2)OCc2cc(-c3cnc([C@@H]4CC[C@H](C)N4C(=O)[C@@H](NC(=O)OC)C(C)C)[nH]3)ccc2-5)N(C(=O)[C@@H](NC(=O)OC)C(C)C)C1 = 0.006 nM

**Q:** Which EC50 value belongs to COC[C@H]1C[C@@H](c2ncc(-c3ccc4c(c3)COc3cc5c(ccc6nc([C@@H]7C[C@H](COC)CN7C(=O)[C@@H](NC(=O)OC)C(C)C)[nH]c65)cc3-4)[nH]2)N(C(=O)[C@@H](NC(=O)OC)C(C)C)C1 ?
**A:** 0.024 nM
